experimental.protocol: wn = mass fraction of the nth substance listed
particulars: 298.15 K; 101 kPa; Liquid; Alternating current cell with electrodes; w2 = 0.2593
measurement.name: electrical conductivity (S/m)

[1] O=C[O-].c1ccc2[nH+]cccc2c1 [quinolinium formate] + O
[2] C1CC[NH2+]C1.CCCCCCCCC(=O)[O-] [pyrrolidinium nonanoate] + O
Look at 1 and 2 . Which one has the lower recorded electrical conductivity number? Answer by quoting the chosen item's label.
2

* * *

experimental.protocol: wn = mass fraction of the nth substance listed
particulars: 298.15 K; 101 kPa; Liquid; Alternating current cell with electrodes; w2 = 0.0909
measurement.name: electrical conductivity (S/m)

What value of electrical conductivity has been reported for the following compound? C1CC[NH2+]C1.CCCCCCC(=O)[O-] [pyrrolidinium heptanoate] + O
0.74

Query (compound): C1CC[NH2+]C1.CCCCCC(=O)[O-] [pyrrolidinium hexanoate] + O ; field requested: electrical conductivity
0.95

So what does the record say about electrical conductivity for O=C[O-].c1ccc2[nH+]cccc2c1 [quinolinium formate] + O ?
0.854

[I] Cc1ccc[n+](C)c1C.O=C[O-] [1,2,3-trimethylpyridinium formate] + O
[II] C1CC[NH2+]C1.CCCCCCCCC(=O)[O-] [pyrrolidinium nonanoate] + O
Sorting by electrical conductivity in descending order, would I or II appear first? Your answer should be the label attached to the chosen record.
I
